All figures here come from patent US8993527B2.

- protocol summary: Oral bioavailability and half-life in fasted adult beagles
- Format: in vivo, dog
- protocol conditions: beagle, dog, in vivo, po, 10 mg/kg IV bolus and 20 mg/kg via stomach tube, read-out: Absolute Oral Bioavailability %
Where a name gives a salt, the structure may show the parent alone.
assay endpoint: bioavailability (%)
Express your answer in %, writing the number without its unit.

// bioavailability value for NC[C@H]1O[C@@H](n2cnc(C(=O)NCc3ccc(Cl)cc3)c2N)[C@H](O)[C@@H]1O [Compound No. 53 (1-468), Hydrochloride] : 32

* * *

- System: coronary endothelial cells
- protocol summary: Inhibition of adenosine utilization in cell culture
- Format: cell-based
- protocol conditions: Endothelial cell; 50 μM, 1 μM [3H] adenosine, 15 minutes
- Description: In this assay, endothelial cells were incubated with 5 μM or 50 μM of the test compound together with 1 μM [^3H] adenosine for 15 minutes. Inhibition of adenosine utilization was determined by measuring the concentration of extracellular adenosine by scintillation counting following separation by thin layer chromatography (TLC).
Where a name gives a salt, the structure may show the parent alone.
assay endpoint: inhibition at 50 µM (%)
Express your answer in %, writing the number without its unit.

// inhibition at 50 µM value for Nc1c(C(=O)NCc2ccc([N+](=O)[O-])cc2)ncn1C1OC(CCl)C(O)C1O (stereo not shown) : 65

// inhibition at 50 µM value for Cc1ccc(CNC(=O)c2ncn(C3OC(CO)C(O)C3O)c2N)cc1 (stereo not shown) : 49

// inhibition at 50 µM value for Nc1c(C(=O)NCc2ccc(Cl)cc2)ncn1C1OC(CO)C(O)C1O (stereo not shown) : 67

// inhibition at 50 µM value for Nc1c(C(=O)NCc2ccc([N+](=O)[O-])cc2)ncn1C1OC(CI)C(O)C1O (stereo not shown) : 30

// inhibition at 50 µM value for Nc1c(C(=O)NCc2ccc([N+](=O)[O-])cc2)ncn1C1OC(CO)C(O)C1O (stereo not shown) : 63

// inhibition at 50 µM value for NC[C@H]1O[C@@H](n2cnc(C(=O)NCc3ccc(Cl)cc3)c2N)[C@H](O)[C@@H]1O [Compound No. 53 (1-468), Hydrochloride] : 58

// inhibition at 50 µM value for Nc1c(C(=O)NCc2ccc(Cl)cc2Cl)ncn1C1OC(CO)C(O)C1O (stereo not shown) : 56
